Listed compounds paired with reported GI50
test system: SK-MEL-28; experiment: NCI tumour cell line growth inhibition, 48 h
Active and inactive are the calls of the source. Cut-off read from the data, not from the text of the source: active = GI50 up to about 1.1 µM and inactive = higher.

Solved entries:
compound: CC(=O)O[C@H]1C(=O)N(c2cc3c4ccccc4ccc3c3ccccc23)[C@@H]1c1ccccc1
GI50: 10.4 µM (inactive)
//
compound: Fc1ccc(C2SCc3nc4ccccc4n32)cc1F (centres undefined)
GI50: 23.4 µM (inactive)
//
compound: Cc1cc2c(C=O)n[nH]c2c(C#N)c1C
GI50: 48.4 µM (inactive)

Now consider the entry below.
INPUT: Entry Cc1nc2ccccc2c(=O)n1/N=C(\N=N\c1ccc(Cl)cc1)c1cccc(-c2ccco2)c1 has what GI50?
OUTPUT: 16.8 µM (inactive)

Just for reference, ChEMBL document CHEMBL1201862 is where these values come from.
